The reported numbers originate from PubChem BioAssay (NCATS).

- Test system: MCC-26
- measurement-notes: qHTS assay to identify novel small-molecules to repurpose for Merkel cell carcinoma treatment (AID 1296009); also: nearly all actives have a fitted effect of over 60% in size
- condition-notes: MCC and control cell lines, CellTiter-Glo viability, 72 h; series mostly up to 46 µM
- Excerpt: MCC is a rare and aggressive neuroendocrine skin cancer with limited treatment options. Approximately 80% of MCCs have the Merkel cell polyomavirus (MCPyV) DNA integrated into the host genome (virus-positive: VP-MCC) and viral oncogenes drive oncogenesis. The remaining MCCs are virus-negative (VN-MCC) and are caused by UV mutagenesis. […] Using cell viability as a readout (CellTiter-Glo assay) we found both overlapping and distinct drugs that can be repurposed for the treatment of VP-MCC and VN-MCC. […]
Inconclusive results are not listed. Calls of active or inactive are those of the source. Calls follow the shape of the dose curve; as a rule, active = well fitted inhibition curve with a large enough effect; inconclusive = small, poorly fitted or top-dose-only effect; inactive = flat fitted curve, though single readings scatter. Non-standard residues stand in square brackets, D forms with d. Residues, ends and D or L forms follow the SMILES beside them. *: point of attachment. Nva = CCC[C@H](N)C(=O)O; Cbz = O=C(OCc1ccccc1)*
Allowed answers: active, inactive

INSERT INTO results (compound, assigned_class) VALUES
  ('OCCN1C[C@H](O)[C@@H](O)[C@H](O)[C@@H]1CO', 'inactive'),
  ('C[C@H](O)[C@@H]1C(=O)N2C(C(=O)O)=C(S[C@@H]3CN[C@H](CNS(N)(=O)=O)C3)[C@@H](C)[C@@H]12', 'inactive'),
  ('C[C@H](NC(=O)Cc1cc(F)cc(F)c1)C(=O)N[C@H](C(=O)OC(C)(C)C)c1ccccc1', 'inactive');

Hi, do you know how COc1cc(C[C@@H](CO)[C@H](CO)Cc2ccc(O)c(OC)c2)ccc1O came out in this test?
inactive

Hi, do you know how Cn1cc(C[C@@H](N)C(=O)O)c2ccccc21 came out in this test?
inactive

Hi, do you know how CC[C@H]1OC(=O)[C@H](C)[C@@H](O[C@H]2C[C@@](C)(OC)[C@@H](O)[C@H](C)O2)[C@H](C)[C@@H](O[C@@H]2O[C@H](C)C[C@H](N(C)C)[C@@H]2O)[C@](C)(OC)C[C@@H](C)C(=O)[C@H](C)[C@@H](O)[C@]1(C)O came out in this test?
inactive

Hi, do you know how CCCCOc1ccc(C(=O)Nc2ccc(F)cc2F)cc1 came out in this test?
inactive

Hi, do you know how CCC[C@@H](C=O)NC(=O)[C@H](CC(C)C)NC(=O)[C@H](CC(C)C)NC(=O)OCc1ccccc1 (Cbz-Leu-Leu-[Nva]-aldehyde) came out in this test?
active

Hi, do you know how CC(=CC(=O)Nc1ccccc1C(=O)O)c1ccc2ccccc2c1 came out in this test?
inactive

Hi, do you know how C[C@@H]1C(=O)O[C@H]2CC34[C@H]5C[C@@H](C(C)(C)C)C36[C@H](OC(=O)[C@@H]6O)O[C@@]4(C(=O)O5)[C@]21O (some centres not stated) came out in this test?
inactive

Hi, do you know how N#CC(=Cc1ccc(O)c(O)c1)C(=O)NCc1ccccc1 came out in this test?
inactive

Hi, do you know how CC(=O)OCC(=O)[C@@]12N=C(C)O[C@H]1C[C@H]1[C@@H]3CCC4=CC(=O)C=C[C@]4(C)[C@@H]3[C@@H](O)C[C@@]12C came out in this test?
inactive

Hi, do you know how O=S(=O)(O)CCSSCCS(=O)(=O)O came out in this test?
inactive
